assay-overview: chemical genetic growth profiling, strain panel (AID 1159580);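 note: tested at 20 µM; growth read once vehicle control cultures reached saturation at 30 °C; lower values mean less growth of the strain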
settings: S. cerevisiae deletion strains, growth OD, locus YNL250W, strain rad50
Among all 5,500 compounds or so, about 2,000 (36%) were called active. Another 18% or so got no clear call; they are omitted. Cut-off read from the data, not from the text of the source: active = normalized growth mostly below about 0.91 (no sharp cut-off); inconclusive = no clear call, values can overlap the other calls; inactive = mostly above about 0.92. This is one part of the list.
Classes used: active, inactive

compound: CC(C)(C)NCC(O)c1cc(Cl)c(N)c(Cl)c1 (stereo not given)
qualitative-label: inactive
--
compound: Oc1cc2c(cc1O)C1c3ccc(O)c(O)c3OCC1(O)C2 (stereo not given)
qualitative-label: inactive
--
compound: CN1C(C)(C)CCCC1(C)C
qualitative-label: inactive
--
compound: C[N+](C)(C)CC(O)CC(=O)O (stereo not given)
qualitative-label: inactive
--
compound: CC1=CC(=O)C2=C(C)CC[C@@H]3[C@H](OC(=O)[C@H]3C)[C@@H]12
qualitative-label: inactive
--
compound: NS(=O)(=O)c1cc(C2(O)NC(=O)c3ccccc32)ccc1Cl (stereo not given)
qualitative-label: inactive
--
compound: CC(C)(O)[C@@H]1Cc2cc3ccc(=O)oc3cc2O1
qualitative-label: inactive
--
compound: CC1CC[C@]2(NC1)O[C@H]1CC3C4CC[C@H]5C[C@@H](O)CC[C@]5(C)C4CC[C@]3(C)[C@H]1[C@@H]2C (stereo not given in full)
qualitative-label: active
--
compound: CC(C)N(CCC(C(N)=O)(c1ccccc1)c1ccccn1)C(C)C (stereo not given)
qualitative-label: inactive
--
compound: CC(=O)[C@@]1(O)CCC2C3C[C@H](C)C4=CC(=O)C=CC4(C)[C@@]3(F)[C@@H](O)C[C@@]21C (stereo not given in full)
qualitative-label: inactive
--
compound: NC(=O)NCCCC(N)C(=O)O (stereo not given)
qualitative-label: inactive
--
compound: CN[C@@H]1C(O)[C@@H](O[C@@H]2[C@@H](O)[C@H](O[C@H]3OC(CN)=CC[C@H]3N)[C@@H](N)C[C@H]2N)OC[C@]1(C)O (stereo not given in full)
qualitative-label: inactive
--
compound: NC(=O)NCC(N)C(=O)O (stereo not given)
qualitative-label: inactive
--
compound: CC(CC(O)C1OC1(C)C)[C@@H]1CCC2(C)C3=CCC4C(C)(C)C(=O)CCC4(C)C3CC[C@@]12C (stereo not given in full)
qualitative-label: inactive
--
compound: C[C@@H]1CC[C@@]2(NC1)O[C@H]1C[C@H]3C4CC=C5C[C@@H](O)CC[C@]5(C)C4CC[C@]3(C)C1[C@@H]2C (stereo not given in full)
qualitative-label: active
--
compound: C[C@@H]1CC[C@@]2(OC1)O[C@H]1CC3C4CC[C@H]5C[C@@H](O)CC[C@]5(C)C4CC[C@]3(C)[C@H]1[C@@H]2C (stereo not given in full)
qualitative-label: inactive
--
compound: CCN1C[C@]2(C)CC[C@H](OC)[C@]34C2[C@H](O)[C@]2(OCO[C@@]25C[C@H](OC)[C@H]2C[C@]3(O)C5[C@H]2O)C14
qualitative-label: inactive
--
compound: COc1ccc2c(c1)CCC1C2CCC2(C)C1C[C@@H](O)C2O (stereo not given in full)
qualitative-label: inactive
--
compound: COc1ccc(Cl)cc1C(=O)NCCc1ccc(S(=O)(=O)NC(=O)NC2CCCCC2)cc1
qualitative-label: inactive
--
compound: CCC/C=C1\OC(=O)C2=C1CCC=C2
qualitative-label: inactive
--
compound: O=C(Cc1cccs1)NC1C(=O)N2C(C(=O)[O-])=C(C[n+]3ccccc3)CSC12 (stereo not given)
qualitative-label: inactive
--
compound: CC(C)C1COc2cc3oc(=O)ccc3cc2O1 (stereo not given)
qualitative-label: inactive
--
compound: CC(=O)OC(C)C[N+](C)(C)C (stereo not given)
qualitative-label: inactive
--
compound: CCCCCCC(C)OC(=O)COc1ccc(Cl)cc1Cl (stereo not given)
qualitative-label: inactive
--
compound: CC1CC[C@@]2(OC1)O[C@H]1CC3C4CC[C@@H]5CC(=O)CC[C@]5(C)C4CC[C@]3(C)[C@H]1[C@@H]2C (stereo not given in full)
qualitative-label: inactive
--
compound: O=C(O)C1=C[C@@H](O)[C@@H](O)[C@H](O)C1
qualitative-label: inactive
--
compound: CC(C)c1c(O)ccc2c1CCC1[C@@](C)(CO)CCC[C@]21C (stereo not given in full)
qualitative-label: inactive
--
compound: CCc1cccc(CC)c1N(COC)C(=O)CCl
qualitative-label: inactive
--
compound: Oc1ccc2c(c1)OCC1(O)Cc3cc(O)c(O)cc3C21 (stereo not given)
qualitative-label: inactive
--
compound: COC(=O)C1OC(=O)C2OC23C1(C)CCC1C2(C)C(OC(C)=O)CC(OC(C)=O)C(C)(C)C2CC(=O)C13C (stereo not given)
qualitative-label: inactive
--
compound: CC(=O)Oc1ccc2c(c1C(C)C)CCC1C(C)(C)CCC[C@]21C (stereo not given in full)
qualitative-label: inactive
--
compound: CO[C@@]1(NC(=O)C(C(=O)O)c2ccc(O)cc2)C(=O)N2C(C(=O)O)=C(CSc3nnnn3C)CO[C@@H]21 (stereo not given in full)
qualitative-label: inactive
--
compound: CC1CC[C@@]2(OC1)O[C@H]1CC3C4CC[C@@H]5C[C@@H](O)CC[C@]5(C)C4CC[C@]3(C)[C@H]1[C@@H]2C (stereo not given in full)
qualitative-label: inactive
--
compound: COC(=O)[C@]1(C)CCC[C@]2(C)c3ccc(C(C)C)cc3C(=O)CC12 (stereo not given in full)
qualitative-label: inactive
--
compound: CC12CCC3c4ccc(OCc5ccccc5)cc4CCC3C1C[C@@H](O)[C@@H]2O (stereo not given in full)
qualitative-label: active
--
compound: COC(=O)[C@@]1(C)CCC[C@]2(C)c3ccc(O)c(C(C)C)c3CCC12 (stereo not given in full)
qualitative-label: inactive
--
compound: C=C(C)[C@H]1COc2cc3oc(=O)ccc3cc2O1
qualitative-label: inactive
--
compound: COC(=O)C[C@H]1C(C)(C)C2(Cl)O[C@@]34CC2C(=O)[C@]1(C)C3CC[C@]1(C)C4=CC(=O)O[C@H]1c1ccoc1 (stereo not given in full)
qualitative-label: inactive
--
compound: CCN(Cc1ccncc1)C(=O)C(CO)c1ccccc1 (stereo not given)
qualitative-label: inactive
--
compound: COc1ccc2c(c1)CCC1C2CC[C@@]2(C)C1CC[C@@H]2O (stereo not given in full)
qualitative-label: active

Sourced from PubChem BioAssay AID1159580
